// provenance: patent US10597388B2

Plant response rating, Barnyardgrass values for the compounds below.
- Test system: barnyardgrass (Echinochloa crus-galli)
- protocol-summary: Test A greenhouse herbicide test, pre- and postemergence
- Format: in vivo
- condition-parameters: Preemergence, 500 g ai/ha; 0 to 100 scale where 0 is no effect and 100 is complete control
# output: bare number, no unit

COC(=O)Oc1cnn(C)c(=O)c1-c1c(C)ccc2ccccc12
80
CSCC(=O)Oc1c(C)nn(C)c(=O)c1-c1cccc2ccccc12
100
CCc1nn(C)c(=O)c(-c2c(C)oc3ccccc23)c1O
50

Attention now shifts to the item below.
Reported Plant response rating, Barnyardgrass for "CCOC(=O)Oc1c(C)nn(C)c(=O)c1-c1c(C)sc2c(C)cc(C)cc12" : what is it?
100

###

Chickweed plant response rating values for the compounds below.
- Tested on: chickweed (common chickweed, Stellaria media)
- protocol-summary: Test C greenhouse herbicide test, postemergence
- Type: in vivo
- condition-parameters: Postemergence, 31 g ai/ha; 0 to 100 scale (0 no effect, 100 complete control)
# output: bare number, no unit

Cc1nn(C)c(=O)c(-c2c(C)sc3ccccc23)c1O [Compound 65]
55
COc1nn(C)c(=O)c(-c2c(C)ccc3ccccc23)c1OC(=O)OC(C)C [Compound 36]
80
COc1nn(C)c(=O)c(-c2c(C)ccc3ccccc23)c1O [Compound 54]
95
C#CCOC(=O)Oc1c(C)nn(C)c(=O)c1-c1c(C)sc2ccc(C)cc12 [Compound 87]
90

Attention now shifts to the item below.
Entry Cc1ccc2ccccc2c1-c1c(O)c(C)nn(C)c1=O [Compound 59] , system chickweed (common chickweed, Stellaria media): what Chickweed plant response rating was measured?
90

###

- System: radish, wild (wild radish, Raphanus raphanistrum)
- protocol-summary: Test D controlled growth environment herbicide test, pre- and postemergence
- Format: in vivo
- condition-parameters: Postemergence, 31 g ai/ha; scale 0 to 100 (0 no effect, 100 complete control)
Radish, Wild plant response rating values for the molecules below.

CCC(=O)Oc1c(C)nn(C)c(=O)c1-c1c(C)sc2ccc(C)cc12 [Compound 42]
5
CCOC(=O)Oc1c(C)nn(C)c(=O)c1-c1c(C)ccc2ccccc12 [Compound 73]
75
Cc1nn(C)c(=O)c(-c2c(C)sc3ccc(Cl)cc23)c1O [Compound 104]
70
CC(=O)Oc1c(C)nn(C)c(=O)c1-c1c(C)cc(C)c2ccccc12 [Compound 153]
80

Reported Radish, Wild plant response rating for CC(=O)Oc1c(C)nn(C)c(=O)c1-c1c(C)sc2c(C)cc(C)cc12 [Compound 27] : what is it?
65

###

- Test system: Italian ryegrass (Lolium multiflorum)
- protocol-summary: Test E greenhouse herbicide test, pre- and postemergence
- Format: in vivo
- condition-parameters: 250 g ai/ha, Postemergence; scale 0 to 100 (0 no effect, 100 complete control)
Plant response rating, Ryegrass, Italian values for the molecules below.
# output: bare number, no unit

Reported Plant response rating, Ryegrass, Italian for "CCC(=O)Oc1c(C)nn(C)c(=O)c1-c1c(C)sc2ccc(C)cc12" : what is it?
90

Also "CCOC(=O)Oc1c(C)nn(C)c(=O)c1-c1c(C)sc2ccc(C)cc12" ?
80

Also "COC(=O)Oc1c(C)nn(C)c(=O)c1-c1c(C)sc2c(C)cc(C)cc12" ?
80

Also "CC(=O)Oc1c(C)nn(C)c(=O)c1-c1c(C)sc2ccc(C)cc12" ?
90

###

- Test system: ragweed (common ragweed, Ambrosia elatior)
- protocol-summary: Test E greenhouse herbicide test, pre- and postemergence
- Type: in vivo
- condition-parameters: Preemergence, 31 g ai/ha; scale 0 to 100, 0 no effect, 100 complete control
Plant response rating, Ragweed values for the compounds below.
# output: bare number, no unit

Here are 3 compounds together with their reported answers.
Cc1cc(C)c2sc(C)c(-c3c(OC(=O)OCCCl)c(C)nn(C)c3=O)c2c1
60
Cc1ccc2ccccc2c1-c1c(O)c(C)nn(C)c1=O
100
CC(=O)Oc1c(C)nn(C)c(=O)c1-c1c(C)sc2c(C)cc(C)cc12
95

Attention now shifts to the item below.
Reported Plant response rating, Ragweed for "CCOC(=O)Oc1c(C)nn(C)c(=O)c1-c1c(C)sc2ccc(C)cc12" : what is it?
85

###

- Tested on: galium (catchweed bedstraw, Galium aparine)
- protocol-summary: Test C greenhouse herbicide test, pre- and postemergence
- Format: in vivo
- condition-parameters: Postemergence, 125 g ai/ha; scale 0 to 100, 0 is no effect, 100 is complete control
observable: Plant response rating, Galium
# output: bare number, no unit

Here are 4 compounds together with their reported answers.
CC(=O)Oc1c(C)nn(C)c(=O)c1-c1c(C)oc2c(C)cc(C)cc12 [Compound 16]
85
Cc1nn(C)c(=O)c(-c2c(C)sc3ccc(Cl)cc23)c1O [Compound 104]
98
CC(=O)Oc1c(C)nn(C)c(=O)c1-c1ccc(F)c2ccccc12 [Compound 90]
95
COc1nn(C)c(=O)c(-c2c(C)sc3ccc(Cl)cc23)c1O [Compound 100]
95

Reported Plant response rating, Galium for Cc1cc(C)c2sc(C)c(-c3c(OC(=O)OC(C)C)c(C)nn(C)c3=O)c2c1 [Compound 67] : what is it?
95

###

- System: blackgrass (Alopecurus myosuroides)
- protocol-summary: Test A greenhouse herbicide test, postemergence
- Format: in vivo
- condition-parameters: 500 g ai/ha, 0 to 100 scale, 0 is no effect, 100 is complete control
Blackgrass plant response rating values for the molecules below.
# output: bare number, no unit

Here are 2 molecules together with their reported answers.
CCOC(=O)Oc1c(C)nn(C)c(=O)c1-c1c(CC)ccc2ccccc12 [Compound 37]
100
CCC(=O)Oc1c(C)nn(C)c(=O)c1-c1c(C)sc2ccc(C)cc12 [Compound 42]
90

Entry CC(=O)Oc1c(C)nn(C)c(=O)c1-c1ccc(F)c2ccccc12 [Compound 90] , system blackgrass (Alopecurus myosuroides): what Blackgrass plant response rating was measured?
90

###

Plant response rating (scale of 0 to 100), Field Poppy values for the molecules below.
- System: field poppy (Papaver rhoeas)
- protocol-summary: Test D controlled growth environment herbicide test, pre- and postemergence
- Type: in vivo
- condition-parameters: Preemergence, 31 g ai/ha
# output: bare number, no unit

CCOC(=O)Oc1c(C)nn(C)c(=O)c1-c1c(C)sc2c(C)cc(C)cc12 [Compound 83]
100
CC(=O)Oc1c(Br)nn(C)c(=O)c1-c1c(C)ccc2ccccc12 [Compound 129]
90
CCC(=O)Oc1c(C)nn(C)c(=O)c1-c1c(C)sc2ccc(C)cc12 [Compound 42]
100
Cc1ccc2sc(C)c(-c3c(O)c(C)nn(C)c3=O)c2c1 [Compound 1]
95
CC(=O)Oc1c(C)nn(C)c(=O)c1-c1c(C)sc2c(C)cc(C)cc12 [Compound 27]
100
Cc1cc(C)c2sc(C)c(-c3c(OC(=O)OC(C)C)c(C)nn(C)c3=O)c2c1 [Compound 67]
100

Reported Plant response rating (scale of 0 to 100), Field Poppy for C#CCOC(=O)Oc1c(C)nn(C)c(=O)c1-c1c(C)sc2ccc(C)cc12 [Compound 87] : what is it?
100

Also COc1nn(C)c(=O)c(-c2c(C)ccc3ccccc23)c1O [Compound 54] ?
90

Also CCC(=O)Oc1c(C)nn(C)c(=O)c1-c1c(C)sc2c(C)cc(C)cc12 [Compound 28] ?
100

###

- System: foxtail, green (green foxtail, Setaria viridis)
- protocol-summary: Test D controlled growth environment herbicide test, pre- and postemergence
- Format: in vivo
- condition-parameters: Postemergence, 125 g ai/ha; visual rating on scale 0 (no effect) to 100 (complete control), 14 to 21 d
Plant response rating, Foxtail, Green values for the molecules below.
# output: bare number, no unit

Here are 3 molecules together with their reported answers.
Cc1ccc(-c2c(O)c(Br)nn(C)c2=O)c2ccccc12
10
CC(=O)Oc1c(C)nn(C)c(=O)c1-c1c(C)cc(C)c2ccccc12
85
CC(=O)Oc1c(Br)nn(C)c(=O)c1-c1c(C)ccc2ccccc12
85

Entry "Cc1cc(C)c2sc(C)c(-c3c(OC(=O)OCCCl)c(C)nn(C)c3=O)c2c1" , system foxtail, green (green foxtail, Setaria viridis): what Plant response rating, Foxtail, Green was measured?
85

Also "CC(=O)Oc1c(C)nn(C)c(=O)c1-c1ccc(F)c2ccccc12" ?
70

Also "CCOC(=O)Oc1c(C)nn(C)c(=O)c1-c1c(C)ccc2ccccc12" ?
75

###

Plant response rating, Pigweed, Palmer values for the compounds below.
- Tested on: pigweed, palmer (palmer pigweed, Amaranthus palmeri)
- protocol-summary: Test E greenhouse herbicide test, pre- and postemergence
- Format: in vivo
- condition-parameters: 125 g ai/ha, Postemergence; scale 0 to 100 (0 no effect, 100 complete control)
# output: bare number, no unit

Here are 3 compounds together with their reported answers.
CCOC(=O)Oc1c(C)nn(C)c(=O)c1-c1c(C)sc2c(C)cc(C)cc12
50
CC(=O)Oc1c(C)nn(C)c(=O)c1-c1c(C)sc2ccc(C)cc12
100
COc1nn(C)c(=O)c(-c2c(C)sc3ccc(Cl)cc23)c1O
40

Reported Plant response rating, Pigweed, Palmer for "Cc1ccc2sc(C)c(-c3c(O)c(C)nn(C)c3=O)c2c1" : what is it?
75
